systemTested: RAC-alpha serine/threonine-protein kinase (Homo sapiens, UniProt P31749)
Sequence (P31749 whole entry): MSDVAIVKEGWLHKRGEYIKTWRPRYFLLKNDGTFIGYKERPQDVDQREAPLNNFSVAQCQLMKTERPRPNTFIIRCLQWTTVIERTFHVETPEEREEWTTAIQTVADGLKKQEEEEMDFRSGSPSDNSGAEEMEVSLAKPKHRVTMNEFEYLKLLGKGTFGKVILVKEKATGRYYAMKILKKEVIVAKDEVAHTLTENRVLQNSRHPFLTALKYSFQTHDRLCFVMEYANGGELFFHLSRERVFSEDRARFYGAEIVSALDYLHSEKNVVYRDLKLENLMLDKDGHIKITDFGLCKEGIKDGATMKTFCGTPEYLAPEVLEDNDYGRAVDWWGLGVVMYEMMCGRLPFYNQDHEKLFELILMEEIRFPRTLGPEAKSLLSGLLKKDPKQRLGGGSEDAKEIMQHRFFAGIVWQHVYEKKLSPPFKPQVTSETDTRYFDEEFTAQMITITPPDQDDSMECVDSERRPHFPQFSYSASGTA
assay: Inhibition of Akt using RPRTSSF peptide and [gamma32]ATP at 0.625 uM by cell-free radioactive assay relative to control
metricName: inhibition (%)
// note: answer is a bare numeric in %

Q. Consider the molecule shown here: "CCC[C@H](NC(=O)[C@H](CCCNC(=N)N)NC(=O)[C@@H]1CCCN1C(=O)[C@@H](N)CCCNC(=N)N)C(=O)N[C@@H](Cc1ccc(O)cc1)C(=O)N[C@@H](CN)C(=O)N[C@@H](CCC(C)C)C(N)=O" What is its recorded inhibition?
A. 36

====

systemTested: RAC-alpha serine/threonine-protein kinase (Homo sapiens, UniProt P31749)
assay: Inhibition of Akt using RPRTSSF peptide and [gamma32]ATP at 0.625 uM by cell-free radioactive assay relative to control
*1 amine or outer side, *2 acyl side, *3 side chain or, on linkers, in order; H or OH if unused. Where a SMILES comes first, the peptide text is derived from it. Bridges are numbered along the chain shown (N, C = ends). [ ]: non-standard residue; d: D form. NGly(3-aminopropyl) = O=C(CN(CCCN[*:3])[*:1])[*:2]; N(2-Aminoethyl)Gly = O=C(CN(CCN[*:3])[*:1])[*:2]; Gly(N-(CH2)6NH2) = NCCCCCCNCC(=O)O; Gly(N-2-aminoethyl) = NCCNCC(=O)O; Gly(N(CH2)3NH2) = NCCCNCC(=O)O; hLeu = CC(C)CC[C@H](N)C(=O)O; Nva = CCC[C@H](N)C(=O)O; Dap = NC[C@H](N)C(=O)O; CO = O=C([*:1])[*:2]; Nlys = NCCCCNCC(=O)O
metricName: inhibition (%)
Lab book: enter the figure in %, no units written.

// known answers, use as guide
compound	inhibition / %
CCC[C@H](NC(=O)[C@H](CCCNC(=N)N)NC(=O)CN(CCN)C(=O)[C@@H](N)CCCNC(=N)N)C(=O)N[C@@H](Cc1ccc(O)cc1)C(=O)N[C@@H](CN)C(=O)N[C@@H](CCC(C)C)C(=O)N(CCCCCCN)CC(N)=O (H-R[Gly(N-2-aminoethyl)]R[Nva]Y[Dap][hLeu][Gly(N-(CH2)6NH2)]-NH2)	42
CCC[C@@H]1NC(=O)[C@H](CCCNC(=N)N)NC(=O)CNCCCNC(=O)NCCN(CC(N)=O)C(=O)[C@H](CCC(C)C)NC(=O)[C@H](CN)NC(=O)[C@H](Cc2ccc(O)cc2)NC1=O (H-[NGly(3-aminopropyl)]R[Nva]Y[Dap][hLeu][N(2-Aminoethyl)Gly]-NH2; linker 1-7 via CO)	84

Q. # returns recorded inhibition (system: RAC-alpha serine/threonine-protein kinase (Homo sapiens, UniProt P31749)) for CCC[C@H](NC(=O)[C@H](CCCNC(=N)N)NC(=O)CN(CCN)C(=O)[C@@H](N)CCCNC(=N)N)C(=O)N[C@@H](Cc1ccc(O)cc1)C(=O)N[C@@H](CN)C(=O)N[C@@H](CCC(C)C)C(=O)N(CCN)CC(N)=O (H-R[Gly(N-2-aminoethyl)]R[Nva]Y[Dap][hLeu][Gly(N-2-aminoethyl)]-NH2)
A. 57

Q. Checklist item: inhibition tested on RAC-alpha serine/threonine-protein kinase (Homo sapiens, UniProt P31749), entry CCC[C@@H]1NC(=O)[C@H](CCCNC(=N)N)NC(=O)CNCCCCNC(=O)NCCN(CC(N)=O)C(=O)[C@H](CCC(C)C)NC(=O)[C@H](CN)NC(=O)[C@H](Cc2ccc(O)cc2)NC1=O (H-[Nlys]R[Nva]Y[Dap][hLeu][N(2-Aminoethyl)Gly]-NH2; linker 1-7 via CO) , value?
A. 32

Q. Lab note: need inhibition for CCC[C@H](NC(=O)[C@H](CCCNC(=N)N)NC(=O)CN(CCCCN)C(=O)[C@@H](N)CCCNC(=N)N)C(=O)N[C@@H](Cc1ccc(O)cc1)C(=O)N[C@@H](CN)C(=O)N[C@@H](CCC(C)C)C(=O)N(CCCCCCN)CC(N)=O (H-R[Nlys]R[Nva]Y[Dap][hLeu][Gly(N-(CH2)6NH2)]-NH2) on RAC-alpha serine/threonine-protein kinase (Homo sapiens, UniProt P31749), anyone have it?
A. 60

Q. Reported inhibition for RAC-alpha serine/threonine-protein kinase (Homo sapiens, UniProt P31749), given CCC[C@H](NC(=O)[C@H](CCCNC(=N)N)NC(=O)CN(CCCCN)C(=O)[C@@H](N)CCCNC(=N)N)C(=O)N[C@@H](Cc1ccc(O)cc1)C(=O)N[C@@H](CN)C(=O)N[C@@H](CCC(C)C)C(=O)N(CCCCN)CC(N)=O (H-R[Nlys]R[Nva]Y[Dap][hLeu][Nlys]-NH2) ?
A. 91

Q. # value lookup — system RAC-alpha serine/threonine-protein kinase (Homo sapiens, UniProt P31749), readout inhibition, item CCC[C@H](NC(=O)[C@H](CCCNC(=N)N)NC(=O)CN(CCN)C(=O)[C@@H](N)CCCNC(=N)N)C(=O)N[C@@H](Cc1ccc(O)cc1)C(=O)N[C@@H](CN)C(=O)N[C@@H](CCC(C)C)C(=O)N(CCCN)CC(N)=O (H-R[Gly(N-2-aminoethyl)]R[Nva]Y[Dap][hLeu][Gly(N(CH2)3NH2)]-NH2)
A. 76
